PROTOCOL_NOTES: The drug is tested on WLS-170 corresponding to human gut metagenome with ENA study accession number: PRJEB37062 and ENA sample accession number: ERS12561762 for biotransformation under anaerobic condition. The drug concentrations were measured over 9 timepoints collected between 0 and 24 hours of incubation by liquid-chromatography-coupled mass spectrometry (LC–MS); further: call rule not given here
COND: 2 µM
RECORDED_METRIC: Bacterial Biotransformation

COMPOUND: CC(=O)OCC(=O)[C@@]1(OC(C)=O)[C@@H](C)C[C@H]2[C@@H]3C[C@H](F)C4=CC(=O)C=C[C@]4(C)[C@@]3(F)[C@@H](O)C[C@@]21C [DIFLORASONE DIACETATE]
READOUT_VALUE: Compound metabolized

COMPOUND: C#C[C@]1(OC(C)=O)CC[C@H]2[C@@H]3CCC4=C[C@@H](OC(C)=O)CC[C@@H]4[C@H]3CC[C@@]21C [ETHYNODIOL DIACETATE]
READOUT_VALUE: Compound metabolized

COMPOUND: C=CC[C@@H]1/C=C(\C)C[C@H](C)C[C@H](OC)[C@H]2O[C@@](O)(C(=O)C(=O)N3CCCC[C@H]3C(=O)O[C@H](/C(C)=C/[C@@H]3CC[C@@H](O)[C@H](OC)C3)[C@H](C)[C@@H](O)CC1=O)[C@H](C)C[C@@H]2OC.O [TACROLIMUS]
READOUT_VALUE: Compound metabolized

COMPOUND: CCN(C)C(=O)Oc1cccc([C@H](C)N(C)C)c1.O=C(O)C(O)C(O)C(=O)O [RIVASTIGMINE TARTRATE]
READOUT_VALUE: Compound NOT metabolized

COMPOUND: CCOc1cc(CC(=O)N[C@@H](CC(C)C)c2ccccc2N2CCCCC2)ccc1C(=O)O [REPAGLINIDE]
READOUT_VALUE: Compound metabolized

COMPOUND: CC(=O)Oc1ccc(C(c2ccc(OC(C)=O)cc2)c2ccccn2)cc1 [BISACODYL]
READOUT_VALUE: Compound metabolized

COMPOUND: COc1ccc(Cc2nccc3cc(OC)c(OC)cc23)cc1OC [PAPAVERINE]
READOUT_VALUE: Compound metabolized

COMPOUND: OCCN(CCO)c1nc(N2CCCCC2)c2nc(N(CCO)CCO)nc(N3CCCCC3)c2n1 [DIPYRIDAMOLE]
READOUT_VALUE: Compound metabolized

COMPOUND: O=C1CN2Cc3c(ccc(Cl)c3Cl)N=C2N1 [ANAGRELIDE]
READOUT_VALUE: Compound metabolized

COMPOUND: c1ccc2[nH]c(-c3cscn3)nc2c1 [THIABENDAZOLE]
READOUT_VALUE: Compound NOT metabolized

COMPOUND: CC(C)(C)NC[C@H](O)COc1nsnc1N1CCOCC1.O=C(O)/C=C\C(=O)O [TIMOLOL MALEATE]
READOUT_VALUE: Compound NOT metabolized

COMPOUND: CC[C@@]1(O)C(=O)OCc2c1cc1n(c2=O)Cc2cc3c(CN(C)C)c(O)ccc3nc2-1 [TOPOTECAN]
READOUT_VALUE: Compound NOT metabolized

COMPOUND: COc1ccc(CN2CCNCC2)c(OC)c1OC.Cl.Cl [TRIMETAZIDINE DIHYDROCHLORIDE]
READOUT_VALUE: Compound NOT metabolized

COMPOUND: COc1ccc(C(CN(C)C)C2(O)CCCCC2)cc1 (stereo unspecified) [VENLAFAXINE]
READOUT_VALUE: Compound NOT metabolized

COMPOUND: CNCC[C@H](Oc1cccc2ccccc12)c1cccs1 [DULOXETINE]
READOUT_VALUE: Compound metabolized

COMPOUND: CN[C@H]1CC[C@@H](c2ccc(Cl)c(Cl)c2)c2ccccc21 [SERTRALINE]
READOUT_VALUE: Compound metabolized
